- measured target: human recombinant mGluR5 (Homo sapiens, UniProt P41594)
- Construct: expressed in transfected cells; host or cells: HEK 293 cell line, cultured with tetracycline, hygromycin and geneticin; tetracycline is withdrawn 3-7 days before the assay
- Sequence (P41594 21-1212): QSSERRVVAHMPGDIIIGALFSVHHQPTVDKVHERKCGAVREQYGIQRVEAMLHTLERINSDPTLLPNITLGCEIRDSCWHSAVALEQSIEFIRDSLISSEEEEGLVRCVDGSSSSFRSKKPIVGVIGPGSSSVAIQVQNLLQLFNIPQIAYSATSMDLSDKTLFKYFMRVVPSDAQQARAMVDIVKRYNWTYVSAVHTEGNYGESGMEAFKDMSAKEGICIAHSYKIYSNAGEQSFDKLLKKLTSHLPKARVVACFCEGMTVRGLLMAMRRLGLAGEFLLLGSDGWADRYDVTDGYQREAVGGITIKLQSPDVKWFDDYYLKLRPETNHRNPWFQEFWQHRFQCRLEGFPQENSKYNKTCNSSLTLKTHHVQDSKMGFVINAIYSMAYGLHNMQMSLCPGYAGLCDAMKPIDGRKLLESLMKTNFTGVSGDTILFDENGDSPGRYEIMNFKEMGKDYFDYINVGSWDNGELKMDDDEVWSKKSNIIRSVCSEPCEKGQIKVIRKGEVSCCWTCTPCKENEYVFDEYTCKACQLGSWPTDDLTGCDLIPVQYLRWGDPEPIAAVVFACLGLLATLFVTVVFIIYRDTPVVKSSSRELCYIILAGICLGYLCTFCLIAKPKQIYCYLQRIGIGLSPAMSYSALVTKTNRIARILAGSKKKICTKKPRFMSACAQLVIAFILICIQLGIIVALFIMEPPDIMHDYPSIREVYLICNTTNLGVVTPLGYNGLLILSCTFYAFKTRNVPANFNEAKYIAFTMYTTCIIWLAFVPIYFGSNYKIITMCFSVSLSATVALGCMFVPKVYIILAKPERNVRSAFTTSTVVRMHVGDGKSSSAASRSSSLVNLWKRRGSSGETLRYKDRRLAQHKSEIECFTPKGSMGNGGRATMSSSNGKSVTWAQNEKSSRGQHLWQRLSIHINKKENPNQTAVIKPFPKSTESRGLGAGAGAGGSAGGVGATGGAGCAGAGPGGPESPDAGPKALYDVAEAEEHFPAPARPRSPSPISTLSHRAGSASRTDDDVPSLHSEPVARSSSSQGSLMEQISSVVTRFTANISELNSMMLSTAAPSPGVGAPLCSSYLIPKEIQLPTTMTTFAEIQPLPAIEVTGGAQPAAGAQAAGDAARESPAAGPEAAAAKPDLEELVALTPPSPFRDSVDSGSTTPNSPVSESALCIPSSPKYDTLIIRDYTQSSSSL
- procedure text: positive modulation of mGluR5, calcium based FLIPR assay
- Assay type: cell-based
- condition context: EC50 of the modulation; HEK 293 cell line expressing human recombinant mGluR5; peak height of Ca fluorescence signal after glutamate at approx. 5% basal stimulation; read-out: EC50
- Procedure: The positive modulation of mGluR5 is measured in a HEK 293 cell line expressing human recombinant mGluR5 and is detected with calcium based FLIPR assay. […] 20 μl of each compound solution are then transferred to the assay plate and the Ca2+ kinetic is measured to determine any intrinsic compound activity. […] The peak height of the Ca release related fluorescence signal (9-66) is used for the EC50. The EC50 of the modulation is calculated over a nonlinear regression with GraphPad Prism (Table 1).
Please provide measured EC50 for the entries that follow.
One number for each entry, in nM.

// worked examples, EC50 included
{"compound": "CCCc1nc(-c2ccc(F)c(C)c2)nn1CC(=O)N1CCc2nc(N)sc2CC1 [Example 7.03.072.]", "unit label": "nM", "EC50": 407}
{"compound": "Cc1nc2c(s1)C(C)CN(C(=O)Cn1nc(-c3ccc(F)cc3)nc1-c1ccc(F)cc1)CC2 (stereo not shown) [Example 7.03.037.]", "unit label": "nM", "EC50": 312}
{"compound": "Cc1nc2c(s1)CCN(C(=O)Cn1nc(-c3ccc(F)c(C)c3)nc1-c1ccccc1)CC2 [Example 7.03.063.]", "unit label": "nM", "EC50": 60}

Turning to the following compound.
Reported EC50, compound Cc1nc2c(s1)CC(C)N(C(=O)Cn1nc(-c3ccc(F)cc3)nc1-c1ccc(F)cc1)CC2 (stereo not shown) [Example 7.03.121.] : ____
259

---

- measured target: human recombinant mGluR5 (Homo sapiens, UniProt P41594)
- Construct: expressed in transfected cells; host or cells: HEK 293 cell line, cultured with tetracycline, hygromycin and geneticin; tetracycline is withdrawn 3-7 days before the assay
- procedure text: positive modulation of mGluR5, calcium based FLIPR assay
- Type: cell-based
- condition context: EC50 of the modulation; HEK 293 cell line expressing human recombinant mGluR5; peak height of Ca fluorescence signal after glutamate at approx. 5% basal stimulation; read-out: EC50
Lab note: cut-off is 100 nM. Strictly less in EC50 is yes (1). Exactly 100 nM or more is no (0).

As a guide, the following entries are already answered.
{"structure as smiles": "Cc1nc2c(o1)CN(C(=O)Cn1nc(-c3ccc(F)c(C)c3)nc1-c1ccccc1)C2", "measured target": "human recombinant mGluR5 (Homo sapiens, UniProt P41594)", "label value": "yes (1)"}
{"structure as smiles": "COc1ccc2c(c1)CCN(C(=O)Cn1nc(-c3ccc(F)c(C)c3)nc1-c1ccccc1)CC2", "measured target": "human recombinant mGluR5 (Homo sapiens, UniProt P41594)", "label value": "no (0)"}
{"structure as smiles": "O=C(Cn1nc(-c2ccc(F)cc2)nc1-c1ccc(F)cc1)N1CCN(c2nccs2)C(=O)C1", "measured target": "human recombinant mGluR5 (Homo sapiens, UniProt P41594)", "label value": "no (0)"}
{"structure as smiles": "Cc1nc2c(s1)CN(C(=O)Cn1nc(-c3ccc(OC(F)F)cc3)nc1-c1ccccc1)C2", "measured target": "human recombinant mGluR5 (Homo sapiens, UniProt P41594)", "label value": "yes (1)"}

Please look at the following compound next.
Regarding CCc1nc(-c2ccc(F)c(C)c2)nn1CC(=O)N1CCc2nc(C)sc2CC1 , kindly confirm whether its EC50 is beneath 100 nM.
no (0)

---

- measured target: human recombinant mGluR5 (Homo sapiens, UniProt P41594)
- Construct: expressed in transfected cells; host or cells: HEK 293 cell line, cultured with tetracycline, hygromycin and geneticin; tetracycline is withdrawn 3-7 days before the assay
- procedure text: positive modulation of mGluR5, calcium based FLIPR assay
- Assay type: cell-based
- condition context: EC50 of the modulation; HEK 293 cell line expressing human recombinant mGluR5; peak height of Ca fluorescence signal after glutamate at approx. 5% basal stimulation; read-out: EC50
pEC50: −log10 of the molar value.
The threshold is inclusive: pEC50 of exactly 6 counts as rule met; values below receive rule not met.

{"compound": "Cc1nc2c(o1)CCN(C(=O)Cn1nc(-c3ccc(F)c(C)c3)nc1-c1ccccc1)C2 [Example 7.02.92.]", "measured target": "human recombinant mGluR5 (Homo sapiens, UniProt P41594)", "label value": "rule met"}
{"compound": "Cc1nc2c(s1)CN(C(=O)Cn1nc(-c3ccc(F)c(C)c3)nc1C1CCC(C)CC1)C2 (centres unmarked) [Example 7.03.091.]", "measured target": "human recombinant mGluR5 (Homo sapiens, UniProt P41594)", "label value": "rule not met"}

Continue with the compound presented below.
Is pEC50 for Cc1nc2c(s1)CN(C(=O)Cn1nc(-c3ccc(F)c(C)c3)nc1C1CCCCC1)C2 [Example 7.03.060.] at or above 6?
rule met

---

- measured target: human recombinant mGluR5 (Homo sapiens)
- Construct: expressed in transfected cells; host or cells: HEK 293 cell line, cultured with tetracycline, hygromycin and geneticin; tetracycline is withdrawn 3-7 days before the assay
- procedure text: positive modulation of mGluR5, calcium based FLIPR assay
- Format: cell-based
- condition context: EC50 of the modulation; HEK 293 cell line expressing human recombinant mGluR5; peak height of Ca fluorescence signal after glutamate at approx. 5% basal stimulation; read-out: EC50
quantity kind: log10(EC50) (log10 of the value in µM)
Values reflect log10 of reported EC50 (µM).

Worked cases, log10(EC50) given:
{"structure as smiles": "Cc1nc2c(o1)CN(C(=O)Cn1nc(-c3ccc(F)c(C)c3)nc1-c1ccccc1)CC2", "log10(EC50)": -1.07}
{"structure as smiles": "CCc1nc2c(s1)CCN(C(=O)Cn1nc(-c3ccc(F)cc3)nc1-c1ccc(F)cc1)CC2", "log10(EC50)": -1.43}
{"structure as smiles": "O=C(Cn1nc(-c2ccc(F)cc2)nc1-c1ccc(F)cc1)N1CCN(Cc2ccccc2)C(=O)C1", "log10(EC50)": 0.14}
{"structure as smiles": "Cc1nc2c(s1)CN(C(=O)Cn1nc(-c3ccc(F)c(C)c3)nc1-c1ccccc1)CC2", "log10(EC50)": -0.94}
{"structure as smiles": "Cc1nc2c(o1)CN(C(=O)Cn1nc(-c3ccc(F)cc3)nc1-c1ccc(F)cc1)CC2", "log10(EC50)": -0.69}

Batch: log10(EC50) for all items listed.
1. O=C(Cn1nc(-c2ccc(F)cc2)nc1-c1ccc(F)cc1)N1CCc2ccccc2CC1
2. O=C(Cn1nc(-c2ccc(F)cc2)nc1-c1ccc(F)cc1)N1CCc2ccc(Cl)nc2CC1

1: 0.01; 2: -0.93

---

- measured target: human recombinant mGluR5 (Homo sapiens, UniProt P41594)
- Construct: expressed in transfected cells; host or cells: HEK 293 cell line, cultured with tetracycline, hygromycin and geneticin; tetracycline is withdrawn 3-7 days before the assay
- procedure text: positive modulation of mGluR5, calcium based FLIPR assay
- Type: cell-based
quantity kind: pEC50
One number for each entry, as −log10 of the molar value.

I have this molecule here, O=C(Cn1nc(-c2ccc(F)cc2)nc1-c1ccc(F)cc1)N1CCC(Nc2ccccc2)CC1 , and I need its recorded pEC50.
5.82

---

- measured target: human recombinant mGluR5 (Homo sapiens, UniProt P41594)
- Construct: expressed in transfected cells; host or cells: HEK 293 cell line, cultured with tetracycline, hygromycin and geneticin; tetracycline is withdrawn 3-7 days before the assay
- procedure text: positive modulation of mGluR5, calcium based FLIPR assay
- Type: cell-based
- condition context: EC50 of the modulation; HEK 293 cell line expressing human recombinant mGluR5; peak height of Ca fluorescence signal after glutamate at approx. 5% basal stimulation; read-out: EC50
quantity kind: pEC50
One number for each entry, as −log10 of the molar value.

Here's what some known entries look like.
{"compound": "COc1cc(C2=CCN(C(=O)Cn3nc(-c4ccc(F)c(C)c4)nc3C(C)C)CC2)ncn1 [Example 7.03.077.]", "pEC50": 6.30}
{"compound": "O=C(Cn1nc(-c2ccc(F)cc2)nc1-c1ccc(F)cc1)N1CCC(c2ncno2)CC1 [Example 7.02.57.]", "pEC50": 5.84}

Quick one: give me pEC50 for each item below, same order please.
1. N#Cc1cccc(N2CCN(C(=O)Cn3nc(-c4ccc(F)cc4)nc3-c3ccc(F)cc3)CC2=O)c1 [Example 7.03.015.]
2. CCCCCc1nc(-c2ccc(F)c(C)c2)nn1CC(=O)N1CCc2nc(N)sc2CC1 [Example 7.03.111.]

6.52
7.05
